- Tested on: Human papillomavirus type 1a E7 protein (residues 1-88)
- assay summary: HPV1a E7 small-molecule binders, primary screen, biochemical, small-molecule microarray, residues 1-88, 635 nm (AID 1129)
- condition context: small-molecule microarray binding, fluorescence 635 nm; higher = more signal
measured quantity: composite z-score

1. O=C1C2C=CC(C(O)c3ccc(Br)cc3)N(Nc3ccccc3)C2C(=O)N1c1ccccc1 (centres undefined) ... 1.14
2. O=C1NC(=O)C2C1C=CC(C(O)CCc1ccccc1)N2Nc1ccccn1 (centres undefined) ... 0.495
3. COCCOC(=O)N1C(=O)[C@@]2(c3cc(C#CCNC(N)=O)ccc31)[C@H](c1ccc(OCCO)cc1)N1[C@H](c3ccccc3)[C@H](c3ccccc3)OC(=O)[C@H]1[C@@H]2C(=O)N1CCN(c2ncccn2)CC1 ... 1.09
4. C[N+](C)(C)CCCCCCNC(=O)[C@@H]1C[C@@H]2C(=O)NCC(=O)N2[C@@H]1c1ccc(O)cc1 ... 1.05
5. COCCOC(=O)N1C(=O)[C@@]2(c3cc(C#CC4(O)CCCCCC4)ccc31)[C@H](C(=O)N1CCc3cc(OC)c(OC)cc3C1)[C@H]1C(=O)O[C@H](c3ccccc3)[C@H](c3ccccc3)N1[C@@H]2c1ccccc1OCCO ... 1.17
6. C#CCNS(=O)(=O)N(C)C ... 0.928
7. COCCCNC(=O)[C@@]1(Cc2ccccc2I)c2ccccc2C(=O)N(Cc2ccccc2Cl)[C@H]1c1ccc(CO)cc1 ... 0.494
8. CC[C@@H]1[C@@H]2C3C(=O)N(CC)C(=O)C3CC(=O)[C@@H]2[C@H](c2ccc(C)cc2)N1S(=O)(=O)c1ccc(C)cc1 (some centres undefined) ... 1.2
9. CN1C(=O)C2C=CC(C(O)c3cccc4ccccc34)N(NC(=O)OC(C)(C)C)C2C1=O (centres undefined) ... 1.02
10. CN(C)C(=O)[C@@]1(CCC(=O)OC(C)(C)C)N=C(c2ccc(OCCCO)cc2)O[C@H]1c1ccccc1N=[N+]=[N-] ... 1.32
11. COC(=O)[C@@]1(Cc2ccc(F)cc2)[C@@H]2[C@@H](CC(=O)[C@H]2CC(=O)C(=O)N2CCCC2)CN1C(=O)c1ccccc1 ... 1.24
12. Cc1cc(C)c(C(O)C2C=CC3C(=O)N(c4ccccc4)C(=O)C3N2Nc2ccc([N+](=O)[O-])cc2)c(C)c1 (centres undefined) ... 1.22
13. NC(=O)NCC#Cc1ccc2c(c1)[C@]1(C(=O)N2)[C@H](c2ccc(OCCO)cc2)N2[C@H](c3ccccc3)[C@H](c3ccccc3)OC(=O)[C@H]2[C@@H]1C(=O)N1CCCCCCC1 ... 1.18
14. CC(C)C[C@@H]1NC(=O)[C@@]23C(=O)N[C@@H](Cc4ccccc4)C2[C@H](C)[C@@]2(C)O[C@H]2C3/C=C/C/C=C\CNC(=O)[C@@H]2CCCN2C1=O (some centres undefined) ... -1.05

====

- Tested on: Sonic hedgehog protein (Shh)
- assay summary: Sonic hedgehog microarray binding compounds – biochemical, small-molecule microarray, 635/667 nm fluorescence, primary screen (AID 1151);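 further: Shh protein binding to compounds spotted on small-molecule microarray slides; score combines spot fluorescence intensity with signal-to-noise across triplicate slides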
- condition context: 635 nm fluorescence, higher = more signal
// values below are reported composite z-score
measured quantity: composite z-score

1. C[N+](C)(C)CCCCCCNC(=O)[C@@H]1C[C@@H]2C(=O)NCC(=O)N2[C@@H]1c1ccc(O)cc1 ... 2.16
2. COc1ccc(C(=O)Nc2ccc3c(c2)[C@]2(O[C@@H](CCO)[C@H]([Si](C)(C)c4ccc(OC)cc4)[C@H]2C)C(=O)N3Cc2ccccc2)cc1 ... 1.83
3. O=C1O[C@H](c2ccccc2)[C@H](c2ccccc2)N2[C@H]1[C@@H](C(=O)N1CCN(c3ncccn3)CC1)[C@]1(C(=O)Nc3ccc(C#CCCO)cc31)[C@H]2c1ccc(OCCO)cc1 ... 1.39
4. COc1ccc([Si](C)(C)[C@H]2[C@H](CC(=O)N3CCC[C@H]3CO)O[C@@]3(C(=O)N(Cc4ccc(N5C(=O)c6cccc7cccc5c67)cc4)c4ccccc43)[C@@H]2C)cc1 ... 2.05
5. CCCC=C(CCC)[C@@H](NC(=O)Cc1ccccc1)c1ccc(C(=O)OC)cc1 ... -0.284
6. C/C=C/[C@@H](CCn1cc([C@H](O)c2ccccc2)nn1)[Si](C)(C)c1ccc(OC)cc1 ... -0.0723
7. COCCOC(=O)N1C(=O)[C@@]2(c3cc(C#CCCO)ccc31)[C@H](C(=O)NC[C@H](O)c1ccccc1)[C@H]1C(=O)O[C@H](c3ccccc3)[C@H](c3ccccc3)N1[C@@H]2c1ccccc1OCCO ... 1.35
8. CCOC(=O)C1=CCC(c2cccc(Cl)c2)O1 (stereo not drawn) ... -0.549
9. O=C1OCC=C[C@H]2OC34C=CCN(CCN5CCOCC5)C(=O)[C@H]3N(CCCCCO)C(=O)[C@@H]4[C@@H]12 (stereo partly drawn) ... 0.175
10. C=CC[C@]1(C(=O)NCC(O)CO)N=C(c2ccc(OCCCO)cc2)O[C@H]1c1ccccc1N=[N+]=[N-] (stereo partly drawn) ... -0.723
11. COc1ccc([Si](C)(C)[C@@H]2[C@@H](CCO)O[C@]3(C(=O)N(Cc4ccccc4)c4ccc(N5CCCCC5=O)cc43)[C@H]2C)cc1 ... 1.44
12. O=C1NC(=O)C2C1C=CC(C(O)CCc1ccccc1)N2Nc1ccccn1 (stereo not drawn) ... 0.0046
13. CN1C(=O)C2C=CC(C(O)C3CCCCC3)N(N(c3ccccc3)c3ccccc3)C2C1=O (stereo not drawn) ... -0.298
14. O=C1C2C=CC(C(O)c3cccc4ccccc34)N(Nc3ccccc3)C2C(=O)N1c1ccccc1 (stereo not drawn) ... 0.296
15. C=CCN1C(=O)[C@@]2(O[C@@H](CCO)[C@H]([Si](C)(C)c3ccc(OC)cc3)[C@H]2C)c2cc(NC(=O)[C@H](C)O)ccc21 ... 1.46
16. C=CC[C@@]1(C(=O)NCC(O)CO)N=C(c2ccc(OCCCO)cc2)O[C@@H]1c1ccccc1 (stereo partly drawn) ... -0.702
17. C=CCC(OC(C)=O)[C@@H]1[C@@H](N(Cc2cc3ccccc3o2)C(=O)Cc2ccc(OC)cc2)c2cc(OCCCO)ccc2N1C(=O)c1ccc(-c2ccccc2)cc1 (stereo partly drawn) ... 0.0275
18. COCCOC(=O)N1C(=O)[C@@]2(c3cc(C#Cc4ccc(OC)cc4)ccc31)[C@H](C(=O)N1CCc3cc(OC)c(OC)cc3C1)[C@H]1C(=O)O[C@H](c3ccccc3)[C@H](c3ccccc3)N1[C@@H]2c1ccc(O)cc1 ... 0.813
19. CC(C)(C)OC(=O)CC[C@@]1(C(=O)N2CCCCC2)N=C(c2ccc(OCCCO)cc2)O[C@@H]1c1ccccc1N=[N+]=[N-] ... 0.292
20. O=C(O)[C@]1(CCS(=O)(=O)c2ccccc2)N=C(c2ccc(OCCCO)cc2)O[C@@H]1c1ccccc1 ... -0.439
21. O=C1C2C=CC(C(O)c3ccc(Br)cc3)N(Nc3ccccc3)C2C(=O)N1c1ccccc1 (stereo not drawn) ... -0.146
22. CCOC(=O)C[C@H]1[C@H](OC(=O)Cc2ccc3c(c2)OCO3)[C@@H](NC(=O)c2ccccc2)c2cc(OCCCO)ccc2N1C(=O)c1ccccc1 ... 0.85
23. Cc1ccc(N2C(=O)c3ccccc3[C@](C)(C(=O)NC(C)C)[C@@H]2c2ccc(CO)cc2)nc1 ... -0.974
24. COCCOC(=O)N1C(=O)[C@@]2(c3cc(C#Cc4ccc(OC)cc4)ccc31)[C@H](C(=O)N1CCc3cc(OC)c(OC)cc3C1)[C@H]1C(=O)O[C@H](c3ccccc3)[C@H](c3ccccc3)N1[C@@H]2c1ccc(OCCO)cc1 ... 1.69
25. CCCN1C(=O)[C@@]2(Cc3ccccc3)N=C(c3ccc(OCCCO)cc3)O[C@H]2c2ccccc21 ... 1.72
26. CC1C=C(CCCO)C=C(C(=O)OCCS(C)(=O)=O)C(C(=O)OCCS(C)(=O)=O)=CN1Cc1cccc(OC(F)(F)F)c1 (stereo not drawn) ... -0.0368
27. CN(C)C(=O)[C@@]1(Cc2ccccc2N=[N+]=[N-])N=C(c2ccc(OCCCO)cc2)O[C@H]1c1ccccc1N=[N+]=[N-] ... -0.536
28. C=CCC(OC(C)=O)[C@@H]1[C@@H](N(Cc2ccc(-c3ccccc3)cc2)C(=O)c2cccc3ccccc23)c2cc(OCCCO)ccc2N1C(=O)c1ccc2ccccc2n1 (stereo partly drawn) ... 0.0754
